Assay: Fraction unbound in human plasma
Format: ADME, cell-free
propertyLabel: fraction unbound
Give only the figure.

Incoming: Quick check: fraction unbound of `CNC(=O)CN1CCC(Oc2cc3c(Nc4cccc(Cl)c4F)ncnc3cc2OC)CC1` ?
Outgoing: 0.067

Now look at this entry.
Incoming: Quick check: fraction unbound of `CNC(=O)CN1CCC(Oc2cc3c(Nc4ccc(F)c(Cl)c4)ncnc3cc2OC)CC1` ?
Outgoing: 0.027

====

Assay: Clearance in AP-Wistar rat at 5 mg/kg, po and 2 mg/kg, iv
Assay type: ADME, organism-based
Conditions: in vivo
propertyLabel: clearance (mL/min/kg)
// units = mL/min/kg; emit number, no label

Incoming: Quick check: clearance of `CNC(=O)CN1CCC(Oc2cc3c(Nc4cccc(Cl)c4F)ncnc3cc2OC)CC1` ?
Outgoing: 13

====

Assay: Volume of distribution at steady state in AP-Wistar rat at 5 mg/kg, po and 2 mg/kg, iv
Format: ADME, organism-based
Conditions: in vivo, read-out: Vdss
propertyLabel: Vd (L/kg)
// units = L/kg; emit number, no label

Incoming: Quick check: Vd of CNC(=O)CN1CCC(Oc2cc3c(Nc4cccc(Cl)c4F)ncnc3cc2OC)CC1 [SAPITINIB] ?
Outgoing: 0.8

====

Assay: Volume of distribution at steady state in dog at 2 mg/kg, po and 1 mg/kg, iv
Assay type: ADME, organism-based, Canis lupus familiaris
Conditions: in vivo, read-out: Vdss
propertyLabel: Vd (L/kg)
// units = L/kg; emit number, no label

Incoming: Quick check: Vd of `CNC(=O)CN1CCC(Oc2cc3c(Nc4cccc(Cl)c4F)ncnc3cc2OC)CC1` ?
Outgoing: 0.2

====

Reported values of log10 IC50 for individual entries
Target: Receptor tyrosine-protein kinase erbB-2 (Homo sapiens, UniProt P04626)
Sequence (P04626 whole entry, the tested form may be a part): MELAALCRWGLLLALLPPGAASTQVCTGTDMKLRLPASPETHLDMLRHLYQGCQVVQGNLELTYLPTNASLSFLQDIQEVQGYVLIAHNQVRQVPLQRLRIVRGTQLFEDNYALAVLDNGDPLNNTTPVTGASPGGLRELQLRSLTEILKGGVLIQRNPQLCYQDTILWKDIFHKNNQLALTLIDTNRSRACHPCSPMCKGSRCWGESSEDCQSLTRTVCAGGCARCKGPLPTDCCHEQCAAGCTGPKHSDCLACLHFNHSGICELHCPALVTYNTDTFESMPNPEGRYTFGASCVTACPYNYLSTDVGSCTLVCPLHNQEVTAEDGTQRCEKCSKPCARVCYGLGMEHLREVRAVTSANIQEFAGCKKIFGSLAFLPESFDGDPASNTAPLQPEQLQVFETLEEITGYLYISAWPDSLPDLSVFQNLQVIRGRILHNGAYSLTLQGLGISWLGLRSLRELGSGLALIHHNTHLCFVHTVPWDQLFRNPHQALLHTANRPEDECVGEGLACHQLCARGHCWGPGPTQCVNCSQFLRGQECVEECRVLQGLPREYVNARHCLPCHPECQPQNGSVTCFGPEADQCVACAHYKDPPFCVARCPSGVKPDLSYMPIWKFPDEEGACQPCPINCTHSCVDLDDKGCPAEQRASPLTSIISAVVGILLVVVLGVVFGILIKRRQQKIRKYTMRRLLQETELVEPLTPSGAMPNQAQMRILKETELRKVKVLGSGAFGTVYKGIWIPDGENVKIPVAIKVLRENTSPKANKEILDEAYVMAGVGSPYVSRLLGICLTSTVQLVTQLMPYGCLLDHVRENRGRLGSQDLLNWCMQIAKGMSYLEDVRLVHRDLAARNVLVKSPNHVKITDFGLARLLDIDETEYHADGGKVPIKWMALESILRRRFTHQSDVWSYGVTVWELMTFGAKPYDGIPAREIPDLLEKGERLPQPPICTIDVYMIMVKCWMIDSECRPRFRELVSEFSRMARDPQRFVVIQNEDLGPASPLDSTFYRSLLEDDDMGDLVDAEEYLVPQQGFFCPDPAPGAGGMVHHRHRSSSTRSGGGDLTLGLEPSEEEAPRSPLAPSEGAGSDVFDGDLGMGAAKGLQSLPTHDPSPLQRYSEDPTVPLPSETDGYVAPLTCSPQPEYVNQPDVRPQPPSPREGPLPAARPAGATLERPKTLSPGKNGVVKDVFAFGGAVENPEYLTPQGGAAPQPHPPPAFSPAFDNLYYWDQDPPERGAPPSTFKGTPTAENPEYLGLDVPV
Assay: Inhibition of human HER2 kinase domain expressed in baculovirus/Sf21 system by ELISA
Kindly note that the scale is log10 and the underlying IC50 is in nM.

Check out these entries, answers already filled in.
Incoming: Quick check: log10 IC50 of `CCNC(=O)CN1CCC(Oc2cc3c(Nc4cccc(Cl)c4F)ncnc3cc2OC)CC1` ?
Outgoing: 1.52

Incoming: Quick check: log10 IC50 of `COc1cc2ncnc(Nc3cccc(Cl)c3F)c2cc1OC1CCN(CC(=O)NC(C)C)CC1` ?
Outgoing: 2.04

---
Incoming: Quick check: log10 IC50 of `CNC(=O)CN1CCC(Oc2cc3c(Nc4cccc(Cl)c4F)ncnc3cc2OC)CC1` ?
Outgoing: 1.15

Incoming: Quick check: log10 IC50 of `COc1cc2ncnc(Nc3cccc(Cl)c3F)c2cc1OC1CCN(CC(=O)N(C)C)CC1` ?
Outgoing: 2.34

Incoming: Quick check: log10 IC50 of `COCCNC(=O)CN1CCC(Oc2cc3c(Nc4cccc(Cl)c4F)ncnc3cc2OC)CC1` ?
Outgoing: 1.96

====

Target: Receptor tyrosine-protein kinase erbB-2 (Homo sapiens, UniProt P04626)
Assay: Inhibition of full-length HER2 phosphorylation transfected in human MCF-7 cl.24 cells after 4 hrs by laser scanning fluorescence microplate cytometry
Format: cell-based
propertyLabel: log10 IC50 (log10 of the value in nM)
Kindly note that the scale is log10 and the underlying IC50 is in nM.

Incoming: Quick check: log10 IC50 of `CNC(=O)CN1CCC(Oc2cc3c(Nc4ccc(F)c(Cl)c4)ncnc3cc2OC)CC1` ?
Outgoing: 2.42

---
Incoming: Quick check: log10 IC50 of `CNC(=O)CN1CCC(Oc2cc3c(Nc4ccc(F)c(Cl)c4F)ncnc3cc2OC)CC1` ?
Outgoing: 1.95

Incoming: Quick check: log10 IC50 of `CNC(=O)CN1CC(Oc2cc3c(Nc4cccc(Cl)c4F)ncnc3cc2OC)C1` ?
Outgoing: 3.04

Incoming: Quick check: log10 IC50 of `CNC(=O)CN1CCC(Oc2cc3c(Nc4cc(Cl)ccc4F)ncnc3cc2OC)CC1` ?
Outgoing: 2.93

Incoming: Quick check: log10 IC50 of `CNC(=O)CN(C)CCOc1cc2c(Nc3cccc(Cl)c3F)ncnc2cc1OC` ?
Outgoing: 3.18

Incoming: Quick check: log10 IC50 of `COc1cc2ncnc(Nc3cccc(Cl)c3F)c2cc1OC1CCN(CC(=O)NC(C)C)CC1` ?
Outgoing: 2.61

Incoming: Quick check: log10 IC50 of `CCNC(=O)CN1CCC(Oc2cc3c(Nc4cccc(Cl)c4F)ncnc3cc2OC)CC1` ?
Outgoing: 2.08

Incoming: Quick check: log10 IC50 of `COCCNC(=O)CN1CCC(Oc2cc3c(Nc4cccc(Cl)c4F)ncnc3cc2OC)CC1` ?
Outgoing: 2.40

Incoming: Quick check: log10 IC50 of CNC(=O)CN1CCC(Oc2cc3c(Nc4cccc(Cl)c4F)ncnc3cc2OC)C1 (racemic) ?
Outgoing: 2.40

Incoming: Quick check: log10 IC50 of `COc1cc2ncnc(Nc3cccc(Cl)c3F)c2cc1OC1CCN(CC(=O)N(C)C)CC1` ?
Outgoing: 2.83

====

Molecular target: Cytochrome P450 2C9 (Homo sapiens)
Sequence (P11712 whole entry): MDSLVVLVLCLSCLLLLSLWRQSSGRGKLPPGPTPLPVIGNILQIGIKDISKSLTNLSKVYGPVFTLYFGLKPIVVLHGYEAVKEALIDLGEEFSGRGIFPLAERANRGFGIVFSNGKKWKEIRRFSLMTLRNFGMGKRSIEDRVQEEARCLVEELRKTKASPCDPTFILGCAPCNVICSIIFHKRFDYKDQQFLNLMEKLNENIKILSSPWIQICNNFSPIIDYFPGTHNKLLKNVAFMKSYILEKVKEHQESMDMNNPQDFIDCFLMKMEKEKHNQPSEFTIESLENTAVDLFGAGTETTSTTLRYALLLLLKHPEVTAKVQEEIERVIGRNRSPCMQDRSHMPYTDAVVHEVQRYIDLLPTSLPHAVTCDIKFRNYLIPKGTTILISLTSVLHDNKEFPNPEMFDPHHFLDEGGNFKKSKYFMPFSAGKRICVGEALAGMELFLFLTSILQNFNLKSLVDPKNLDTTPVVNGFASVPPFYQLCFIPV
propertyLabel: IC50

Incoming: Quick check: IC50 of `CNC(=O)CN1CCC(Oc2cc3c(Nc4cccc(Cl)c4F)ncnc3cc2OC)CC1` ?
Outgoing: > 10 µM

====

Target: Cytochrome P450 2C19 (Homo sapiens)
Sequence (P33261 whole entry): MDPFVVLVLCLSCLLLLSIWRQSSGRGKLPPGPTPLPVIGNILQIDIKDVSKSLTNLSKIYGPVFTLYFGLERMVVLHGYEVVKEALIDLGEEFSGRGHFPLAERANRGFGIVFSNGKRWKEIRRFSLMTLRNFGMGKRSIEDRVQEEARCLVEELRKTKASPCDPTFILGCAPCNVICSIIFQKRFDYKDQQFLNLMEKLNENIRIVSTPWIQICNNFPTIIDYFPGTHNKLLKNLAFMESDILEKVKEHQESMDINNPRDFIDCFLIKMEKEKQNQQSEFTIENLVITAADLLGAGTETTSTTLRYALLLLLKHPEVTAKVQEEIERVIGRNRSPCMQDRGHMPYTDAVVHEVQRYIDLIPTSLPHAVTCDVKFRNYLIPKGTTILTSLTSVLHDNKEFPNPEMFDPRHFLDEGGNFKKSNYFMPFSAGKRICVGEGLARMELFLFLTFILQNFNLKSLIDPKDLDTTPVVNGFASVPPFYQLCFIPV
propertyLabel: IC50

Incoming: Look up IC50 with Cytochrome P450 2C19 (Homo sapiens) for this compound: `CNC(=O)CN1CCC(Oc2cc3c(Nc4cccc(Cl)c4F)ncnc3cc2OC)CC1`
Outgoing: > 10 µM

====

Experiment: Intrinsic clearance in human hepatocytes assessed per million cells
Assay type: ADME, cell-based, Hepatocyte
Settings: read-out: CLH
propertyLabel: hepatocyte CLint

Incoming: Quick check: hepatocyte CLint of `CNC(=O)CN1CCC(Oc2cc3c(Nc4cccc(Cl)c4F)ncnc3cc2OC)CC1` ?
Outgoing: < 4.5 µL/min/1e6 cells

====

Biological target: Cytochrome P450 2D6 (Homo sapiens)
Sequence (P10635 whole entry): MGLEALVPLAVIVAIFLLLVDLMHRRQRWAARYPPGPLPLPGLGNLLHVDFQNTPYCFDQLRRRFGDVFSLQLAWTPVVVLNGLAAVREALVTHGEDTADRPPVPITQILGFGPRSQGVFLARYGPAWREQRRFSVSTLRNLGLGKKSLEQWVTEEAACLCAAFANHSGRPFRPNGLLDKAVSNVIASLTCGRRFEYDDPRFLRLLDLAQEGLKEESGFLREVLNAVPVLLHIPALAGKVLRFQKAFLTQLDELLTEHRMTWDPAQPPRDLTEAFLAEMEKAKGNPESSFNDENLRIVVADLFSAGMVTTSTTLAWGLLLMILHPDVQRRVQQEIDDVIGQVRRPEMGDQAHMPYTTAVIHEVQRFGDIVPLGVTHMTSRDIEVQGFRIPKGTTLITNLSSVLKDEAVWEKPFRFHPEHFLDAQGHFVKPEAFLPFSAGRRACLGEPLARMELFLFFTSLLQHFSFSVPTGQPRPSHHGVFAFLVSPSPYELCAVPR
propertyLabel: IC50

Incoming: Look up IC50 with Cytochrome P450 2D6 (Homo sapiens) for this compound: CNC(=O)CN1CCC(Oc2cc3c(Nc4cccc(Cl)c4F)ncnc3cc2OC)CC1 [SAPITINIB]
Outgoing: > 10 µM

====

Test: Lipophilicity, log D of the compound at pH 7.4
Assay type: physicochemical
Settings: buffer
Reported values of logD for individual entries

Check out these entries, answers already filled in.
Incoming: Quick check: logD of `CNC(=O)CN1CCC(Oc2cc3c(Nc4cccc(Cl)c4F)ncnc3cc2OC)CC1` ?
Outgoing: 3.2

Incoming: Quick check: logD of `CNC(=O)CN1CCC(Oc2cc3c(Nc4ccc(F)c(Cl)c4)ncnc3cc2OC)CC1` ?
Outgoing: 4

Now look at this entry.
Incoming: Quick check: logD of `COc1cc2ncnc(Nc3cccc(Cl)c3F)c2cc1OC1CCN(CC(N)=O)CC1` ?
Outgoing: 3.1

====

Target: Receptor tyrosine-protein kinase erbB-2 (Homo sapiens, UniProt P04626)
Assay: Inhibition of full-length HER2 phosphorylation transfected in human MCF-7 cl.24 cells after 4 hrs by laser scanning fluorescence microplate cytometry
Format: cell-based
propertyLabel: IC50 (nM)
// units = nM; emit number, no label

Incoming: Quick check: IC50 of CNC(=O)CN1CCC(Oc2cc3c(Nc4cccc(Cl)c4F)ncnc3cc2OC)CC1 [SAPITINIB] ?
Outgoing: 60

---
Incoming: Quick check: IC50 of CNC(=O)CN1CCCC(Oc2cc3c(Nc4cccc(Cl)c4F)ncnc3cc2OC)C1 (racemic) ?
Outgoing: 230

Incoming: Quick check: IC50 of `CNC(=O)CN1CCC(Oc2cc3c(Nc4cccc(Cl)c4)ncnc3cc2OC)CC1` ?
Outgoing: 360

Incoming: Quick check: IC50 of `CNC(=O)CCN1CCC(Oc2cc3c(Nc4cccc(Cl)c4F)ncnc3cc2OC)CC1` ?
Outgoing: 550
